Tested on: A498 renal
Assay: NCI tumour cell line growth inhibition, 48 h
Measured Parameter: TGI (µM)
Unit µM implied. Number only.

Task: Give recorded TGI. CNC(=O)OCC1=C(COC(=O)NC)C(C)N(c2ccc(OC)cc2)C1 (stereo not given)
Result: 1.74

Task: Please report the measured TGI for C#Cc1ccc(-n2c(/C=C/c3ccc(C(F)(F)F)cc3)nc3ncccc3c2=O)cc1
Result: 5.76

Task: Look up and report measured TGI for this entry: CCCCCN(CCCCC)CC(O)c1cc(C)c2ccc3cc(C(C)C)ccc3c2c1 (stereo not given)
Result: 2.94

Task: In one line, give reported TGI of the entry Cc1cc(O)c2c(=O)c3ccccc3[nH]c2c1 .
Result: 82.6
